// data source = PubChem BioAssay AID1648

- target_system: Serine/threonine-protein kinase mTOR (Homo sapiens)
- assay_explanation: binders of mTOR FRB domain, biophysical, NMR (AID 1648)
- assay_context: NMR binding to FRB domain, chemical shift
Calls of active or inactive are those of the source. No rule for the calls is given here.
The following molecules are listed with their measured Kd values.

| molecule | Kd |
| --- | --- |
| COc1cccc(N2CCNCC2)c1 | > 4 mM (inactive) |
| COc1cccc(OC)c1C(=O)N1CCOCC1 | > 4 mM (inactive) |
| O=C(Nc1nnc(-c2ccco2)o1)c1ccc([N+](=O)[O-])o1 | > 4 mM (inactive) |
| N#Cc1cc2c(nc1SCc1ccncc1)CCC2 | > 4 mM (inactive) |
| Cc1cc(C(=O)NC(C)c2ccncc2)cs1 (stereo unspecified) | > 4 mM (inactive) |
| CNC(=O)Nc1ccc(C(=O)NC)cc1 | > 4 mM (inactive) |
| C=CCSCC=C | > 4 mM (inactive) |
| CN(C)S(=O)(=O)N1CCc2ccccc21 | > 4 mM (inactive) |
| Cc1cc(C(=O)NCc2cccs2)cs1 | > 4 mM (inactive) |
| Cc1cc(=O)[nH]c(NCc2cccnc2)n1 | > 4 mM (inactive) |

For this molecule ( `CCOC(=O)C1CCN(c2ccc(C#N)cc2)CC1` ), measured Kd is > 4 mM (inactive)

For this molecule ( `C/C=C(\C)c1nnc(NC(=O)C(C)C)s1` ), measured Kd is > 4 mM (inactive)

For this molecule ( CC1(C)CC2C1CCC1(C)OC2(C)CCC1O (stereo unspecified) ), measured Kd is > 4 mM (inactive)

For this molecule ( OC1CCC(C(F)(F)F)CC1 (stereo unspecified) ), measured Kd is > 4 mM (inactive)

For this molecule ( `COc1ccc2ccc(=O)oc2c1` ), measured Kd is > 4 mM (inactive)

For this molecule ( `OCc1ccc2c(c1)CCO2` ), measured Kd is > 4 mM (inactive)

For this molecule ( `O/N=C1/CCCc2nonc21` ), measured Kd is > 4 mM (inactive)

For this molecule ( `CSc1nc2nccc(N)n2n1` ), measured Kd is > 4 mM (inactive)

For this molecule ( `COc1cccc(Oc2ccc(N)cn2)c1` ), measured Kd is > 4 mM (inactive)

For this molecule ( `CCOc1ccc(C)cc1S(=O)(=O)n1ccc(C)n1` ), measured Kd is > 4 mM (inactive)

---

- target_system: Serine/threonine-protein kinase mTOR (Homo sapiens)
- assay_explanation: binders of mTOR FRB domain, biophysical, NMR (AID 1648)
- assay_context: NMR binding to FRB domain, chemical shift
Calls of active or inactive are those of the source. How the calls were made is not given here.
observed_property: Kd

For this compound ( `NC(=O)CSc1nnc2ccc(-c3ccccn3)nn12` ), measured Kd is > 4 mM (inactive)

For this compound ( `Oc1ccc2c(c1)OCO2` ), measured Kd is > 4 mM (inactive)

For this compound ( C[C@H]1OC(O[C@H]2[C@@H](O)CC(O[C@H]3[C@@H](O)C[C@H](O[C@H]4CC[C@]5(C)C6CC[C@]7(C)[C@@H](C8=CC(=O)OC8)[C@@H](O)C[C@]7(O)[C@@H]6CC[C@@H]5C4)O[C@@H]3C)O[C@@H]2C)C[C@H](O)C1O (stereo not given in full) ), measured Kd is > 4 mM (inactive)

For this compound ( `CSc1nc2nc(C)cc(=O)n2[nH]1` ), measured Kd is > 4 mM (inactive)

For this compound ( `COC(=O)c1scc(S(C)(=O)=O)c1-n1cccc1` ), measured Kd is > 4 mM (inactive)

For this compound ( `O=C1COc2ccccc2C(=O)N1` ), measured Kd is > 4 mM (inactive)

For this compound ( `O=C(CN1C(=O)CCC1=O)c1ccccc1` ), measured Kd is > 4 mM (inactive)

---

- target_system: Serine/threonine-protein kinase mTOR (Homo sapiens)
- assay_explanation: binders of mTOR FRB domain, biophysical, NMR (AID 1648)
- assay_context: NMR binding to FRB domain, chemical shift
Active and inactive are the calls of the source. No rule for the calls is given here.
The following compounds are listed with their measured Kd values.

| compound | Kd |
| --- | --- |
| Cc1cccc(N2CCN(C(=O)c3ccncc3)CC2)c1C | > 4 mM (inactive) |
| C=C[C@H]1CN2CC[C@H]1C[C@H]2[C@H](O)c1ccnc2ccccc12 | > 4 mM (inactive) |
| COc1c2c(cc3c1OCO3)C13C=C[C@H](OC)CC1N(C2)CC3O (some centres not stated) | > 4 mM (inactive) |
| CC1=CC(C)C(C(=O)O)C(C(=O)N2CCN(C)CC2)C1 (configuration not stated) | > 4 mM (inactive) |
| COc1ccc2c(c1)[nH]c1c(C)nccc12 | > 4 mM (inactive) |
| COc1ccc2c(c1)OC/C(=C\c1ccc(OC)c(O)c1)C2=O | > 4 mM (inactive) |

For this compound ( `Nc1ccc2c(c1)C(=O)OC2` ), measured Kd is > 4 mM (inactive)

For this compound ( `CC(=O)c1ccc(NC(=O)c2ocnc2C)cc1` ), measured Kd is > 4 mM (inactive)

For this compound ( `c1ccc(-c2nsc(N3CCNCC3)n2)cc1` ), measured Kd is > 4 mM (inactive)

---

- target_system: Serine/threonine-protein kinase mTOR (Homo sapiens) (UniProt P42345)
- Sequence (P42345 2015-2114): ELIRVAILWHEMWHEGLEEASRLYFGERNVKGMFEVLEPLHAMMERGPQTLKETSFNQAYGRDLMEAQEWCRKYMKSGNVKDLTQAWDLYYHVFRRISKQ
- assay_explanation: binders of mTOR FRB domain, biophysical, NMR (AID 1648)
- assay_context: NMR binding to FRB domain, chemical shift
The source made the active and inactive calls. No rule for the calls is given here.
observed_property: Kd

| compound | Kd |
| --- | --- |
| Cc1csc(NC(=O)c2cccs2)n1 | > 4 mM (inactive) |
| Cc1cc(=O)[nH]c(NCC(=O)O)n1 | > 4 mM (inactive) |
| CCn1c(C)c(C(C)=O)c(N2CCN(C)CC2)nc1=S | > 4 mM (inactive) |

For this compound ( `O=S(=O)(NCc1ccco1)c1cccc2cccnc12` ), measured Kd is > 4 mM (inactive)

For this compound ( `CC(C)=CC(=O)Nc1ccc(S(N)(=O)=O)cc1` ), measured Kd is > 4 mM (inactive)

---

- target_system: Serine/threonine-protein kinase mTOR (Homo sapiens) (UniProt P42345)
- assay_explanation: binders of mTOR FRB domain, biophysical, NMR (AID 1648)
- assay_context: NMR binding to FRB domain, chemical shift
The source made the active and inactive calls. How the calls were made is not given here.
observed_property: Kd

Worked examples, 3 compounds total:
| cpd_smiles | Kd |
| --- | --- |
| O=C1CCc2ccccc2CN1 | > 4 mM (inactive) |
| c1ccc(CCc2nc(-c3ccccn3)no2)cc1 | > 4 mM (inactive) |
| O=c1c(O)cccc2cc(O)c(O)c(O)c12 | > 4 mM (inactive) |

// returns Kd for `O=C(O)c1ccc(-c2cccs2)cc1` with Serine/threonine-protein kinase mTOR (Homo sapiens) (UniProt P42345); value = > 4 mM (inactive)

// returns Kd for `C[C@H]1C(=O)O[C@@H]2CCN3CC=C(COC(=O)[C@](C)(O)[C@]1(C)O)[C@H]23` with Serine/threonine-protein kinase mTOR (Homo sapiens) (UniProt P42345); value = > 4 mM (inactive)

// returns Kd for `CCn1c(-c2c[nH]c3ccccc23)n[nH]c1=S` with Serine/threonine-protein kinase mTOR (Homo sapiens) (UniProt P42345); value = > 4 mM (inactive)

// returns Kd for `Cn1c(=O)c2[nH]c(Nc3ccccc3)nc2n(C)c1=O` with Serine/threonine-protein kinase mTOR (Homo sapiens) (UniProt P42345); value = > 4 mM (inactive)

// returns Kd for `O=C(O)c1ccc(CSc2ncn[nH]2)cc1` with Serine/threonine-protein kinase mTOR (Homo sapiens) (UniProt P42345); value = > 4 mM (inactive)

// returns Kd for `CS(=O)(=O)N1CCN(C(=O)c2ccccc2)C1` with Serine/threonine-protein kinase mTOR (Homo sapiens) (UniProt P42345); value = > 4 mM (inactive)

// returns Kd for `OCCNC(=S)Nc1ccc(F)cc1` with Serine/threonine-protein kinase mTOR (Homo sapiens) (UniProt P42345); value = > 4 mM (inactive)

// returns Kd for `Cc1noc(C)c1C(=O)NCc1cccs1` with Serine/threonine-protein kinase mTOR (Homo sapiens) (UniProt P42345); value = > 4 mM (inactive)

// returns Kd for `CC1(C)CCC(C)(C)c2cc(C(=O)O)ccc21` with Serine/threonine-protein kinase mTOR (Homo sapiens) (UniProt P42345); value = > 4 mM (inactive)

// returns Kd for `Cc1ccc(C(=O)CS(C)(=O)=O)cc1` with Serine/threonine-protein kinase mTOR (Homo sapiens) (UniProt P42345); value = > 4 mM (inactive)

---

- target_system: Serine/threonine-protein kinase mTOR (Homo sapiens)
- assay_explanation: binders of mTOR FRB domain, biophysical, NMR (AID 1648)
- assay_context: NMR binding to FRB domain, chemical shift
Active and inactive are the calls of the source. No rule for the calls is given here.
observed_property: Kd

Worked examples, 5 compounds total:
| compound | observed_property | result |
| --- | --- | --- |
| O=C(O)c1coc2c1C(=O)CCC2 | Kd | > 4 mM (inactive) |
| CSc1nc(-c2ccco2)nn1S(C)(=O)=O | Kd | > 4 mM (inactive) |
| O=C(c1cccc(-n2cnnn2)c1)N1CCOCC1 | Kd | > 4 mM (inactive) |
| Cc1cc(NC(=O)c2c(F)c(F)c(F)c(F)c2F)no1 | Kd | > 4 mM (inactive) |
| c1ccc(Cc2nnc3sc(-c4ccccn4)nn23)cc1 | Kd | > 4 mM (inactive) |

// returns Kd for `CCOc1cc(S(=O)(=O)n2nc(C)cc2C)ccc1F` with Serine/threonine-protein kinase mTOR (Homo sapiens); value = > 4 mM (inactive)

// returns Kd for `CC(=O)c1cccc(NS(=O)(=O)N(C)C)c1` with Serine/threonine-protein kinase mTOR (Homo sapiens); value = > 4 mM (inactive)
